ASSAY_TEXT: Displacement of [3H]AMPA from AMPA receptor in rat cortical synaptical membrane
Format: cell membranes
Recorded log10(Ki) by entry
MEASURE: log10(Ki) (log10 of the value in nM)

[
  {
    "COMPOUND": "O=c1[nH]c2cc(C(F)(F)F)c([N+](=O)[O-])cc2c(=O)n1O",
    "log10(Ki)": 2.41
  },
  {
    "COMPOUND": "O=Cc1ccn(-c2cc3c(=O)n(O)c(=O)[nH]c3cc2C(F)(F)F)c1",
    "log10(Ki)": 2.86
  },
  {
    "COMPOUND": "O=c1[nH]c2cc(C(F)(F)F)ccc2c(=O)n1O",
    "log10(Ki)": 3.68
  },
  {
    "COMPOUND": "O=c1[nH]c2cc(Cl)c([N+](=O)[O-])cc2c(=O)n1O",
    "log10(Ki)": 3.11
  },
  {
    "COMPOUND": "COn1c(=O)[nH]c2cc(C(F)(F)F)c(-n3cnnc3)cc2c1=O",
    "log10(Ki)": 4.30
  },
  {
    "COMPOUND": "Nc1cc2c(=O)n(O)c(=O)[nH]c2cc1C(F)(F)F",
    "log10(Ki)": 3.79
  },
  {
    "COMPOUND": "O=c1[nH]c2cc(C(F)(F)F)c(-n3cccc3)cc2c(=O)n1O",
    "log10(Ki)": 5.10
  },
  {
    "COMPOUND": "O=C(O)c1ccn(-c2cc3c(=O)n(O)c(=O)[nH]c3cc2C(F)(F)F)c1",
    "log10(Ki)": 2.66
  },
  {
    "COMPOUND": "NS(=O)(=O)c1cccc2c1c([N+](=O)[O-])cc1nc(O)c(O)nc12 [NBQX]",
    "log10(Ki)": 1.85
  }
]
